Target: EPHB2 (UniProt P29323)
Sequence (P29323 whole entry, looked up): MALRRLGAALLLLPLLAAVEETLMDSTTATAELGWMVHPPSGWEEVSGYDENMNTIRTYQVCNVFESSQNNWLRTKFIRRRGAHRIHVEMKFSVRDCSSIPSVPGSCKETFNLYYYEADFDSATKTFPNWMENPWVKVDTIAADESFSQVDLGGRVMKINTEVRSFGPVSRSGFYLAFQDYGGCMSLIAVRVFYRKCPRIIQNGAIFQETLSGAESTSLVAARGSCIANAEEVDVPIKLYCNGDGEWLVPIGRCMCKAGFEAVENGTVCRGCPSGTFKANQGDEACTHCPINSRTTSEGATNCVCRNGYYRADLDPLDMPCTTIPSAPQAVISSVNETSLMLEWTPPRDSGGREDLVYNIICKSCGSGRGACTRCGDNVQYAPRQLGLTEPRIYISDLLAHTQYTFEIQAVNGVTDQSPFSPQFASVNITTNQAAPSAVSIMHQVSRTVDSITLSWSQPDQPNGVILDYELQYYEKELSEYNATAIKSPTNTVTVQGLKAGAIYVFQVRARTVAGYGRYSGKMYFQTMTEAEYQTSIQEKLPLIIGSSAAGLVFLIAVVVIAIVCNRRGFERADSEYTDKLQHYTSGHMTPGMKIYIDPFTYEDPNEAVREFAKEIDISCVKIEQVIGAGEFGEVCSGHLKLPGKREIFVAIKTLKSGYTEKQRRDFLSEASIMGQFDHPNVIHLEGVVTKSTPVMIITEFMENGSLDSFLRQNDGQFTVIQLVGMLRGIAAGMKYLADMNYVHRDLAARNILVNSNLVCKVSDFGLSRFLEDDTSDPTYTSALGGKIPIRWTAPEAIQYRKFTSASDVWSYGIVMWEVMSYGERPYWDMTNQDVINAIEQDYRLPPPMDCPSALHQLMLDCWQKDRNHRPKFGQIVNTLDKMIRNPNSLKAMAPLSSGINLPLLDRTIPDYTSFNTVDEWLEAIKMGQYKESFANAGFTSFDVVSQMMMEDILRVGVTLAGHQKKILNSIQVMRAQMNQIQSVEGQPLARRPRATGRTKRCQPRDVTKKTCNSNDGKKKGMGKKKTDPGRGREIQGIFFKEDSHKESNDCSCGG
Assay: phosphorylation enrichment, bacterial display (enrichment ratio); higher = better substrate or ligand; peptides without Tyr show the background;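 also: 11-residue human phosphosite peptides and single-mutation variants displayed on the E. coli surface, counted by deep sequencing, each peptide's frequency after selection divided by its frequency in the unselected input library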;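 also: frequency after pTyr selection over input frequency; kinase dosed for 20-30% of maximal phosphorylation in three min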
readout-type: phosphorylation enrichment
Quick one: just the number, no unit, thanks!

// query What measured phosphorylation enrichment is associated with SSYSGYIMMPN [LEF1_Y114] on EPHB2 (UniProt P29323)?
// result 1.09

// query What measured phosphorylation enrichment is associated with SREDIYKRNIE [PDE4DIP_Y45] on EPHB2 (UniProt P29323)?
// result 0.553

// query What measured phosphorylation enrichment is associated with GRQVIYTENER [GPR143_Y231_G229V] on EPHB2 (UniProt P29323)?
// result 0.41

// query What measured phosphorylation enrichment is associated with LLQEWYMIISR [HUWE1_Y4066_R4063Q] on EPHB2 (UniProt P29323)?
// result 0.921

// query What measured phosphorylation enrichment is associated with WISNRYPDFSS [PRPH2_Y184_L185P] on EPHB2 (UniProt P29323)?
// result 0.552

// query What measured phosphorylation enrichment is associated with MGSFNYLGFAW [SPTLC2_Y178_R183W_YF] on EPHB2 (UniProt P29323)?
// result 1.09

// query What measured phosphorylation enrichment is associated with KILGRYYETSS [PAX2_Y72_G76S] on EPHB2 (UniProt P29323)?
// result 0.502

// query What measured phosphorylation enrichment is associated with TVHCDYLNIPH [TAF1L_Y1385] on EPHB2 (UniProt P29323)?
// result 0.706

// query What measured phosphorylation enrichment is associated with SQDSAYHSGIQ [FLG_Y3940] on EPHB2 (UniProt P29323)?
// result 0.366

// query What measured phosphorylation enrichment is associated with FDEFRYRSVIK [CFTR_Y517_YF] on EPHB2 (UniProt P29323)?
// result 0.472

// query What measured phosphorylation enrichment is associated with LLSISYVGCSL [ADGRD1_Y571_S567L] on EPHB2 (UniProt P29323)?
// result 0.823

// query What measured phosphorylation enrichment is associated with VDGSVYELHPS [GCK_Y413_K414E] on EPHB2 (UniProt P29323)?
// result 3.42

// query What measured phosphorylation enrichment is associated with LTTEAYEWEPR [ELMOD3_Y61] on EPHB2 (UniProt P29323)?
// result 1.24

// query What measured phosphorylation enrichment is associated with SNKLTYGTMVF [ACOX1_Y275] on EPHB2 (UniProt P29323)?
// result 0.604
